Origin of the recorded values: PubChem BioAssay AID1259407

System: CCRIS mutagenicity, Ames/micronucleus/aberration tests
Test: CCRIS mutagenicity studies
Conditions: Test System: AMES SALMONELLA TYPHIMURIUM; Strain/Indicator: TA1537; Metabolic Activation: HAMSTER, LIVER, S-9, AROCLOR 1254; Method: PREINCUBATION
Calls of active or inactive are those of the source. How the calls were made is not given here.
observation-type: mutagenic call

1) O=P(O)(O)O: inactive; negative
2) c1ccc2occc2c1: inactive; negative
3) CC1(C)S[C@@H]2[C@H](NC(=O)COc3ccccc3)C(=O)N2[C@H]1C(=O)O: inactive; negative

###

Tested on: CCRIS mutagenicity, Ames/micronucleus/aberration tests
Experiment: CCRIS mutagenicity studies
Details: Test System: AMES SALMONELLA TYPHIMURIUM; Strain/Indicator: TA98; Metabolic Activation: NONE; Method: STANDARD PLATE
Active and inactive are the calls of the source. How the calls were made is not given here.
observation-type: mutagenic call

1. CC(C)C1=CC2=CC[C@@H]3[C@](C)(CCC[C@@]3(C)C(=O)O)[C@H]2CC1: inactive; negative
2. C[C@@]12CCC=C(C=O)[C@]1(C=O)C2: active; positive
3. Nc1ccc(-c2ccc(N)cc2)cc1: inactive; negative
4. Nc1cccc([N+](=O)[O-])c1O: inactive; negative
5. CCCCCC/C=C\CCCCCCOC(C)=O: inactive; negative
6. Clc1ccc2c(c1)oc1ccccc12: active; positive
7. CCN(CC)c1ccc(C(=C2C=CC(=[N+](CC)CC)C=C2)c2ccc(N(CC)CC)cc2)cc1: inactive; negative

###

Test system: CCRIS mutagenicity, Ames/micronucleus/aberration tests
Test: CCRIS mutagenicity studies
Settings: Test System: AMES SALMONELLA TYPHIMURIUM; Strain/Indicator: TA98; Metabolic Activation: S-9; Method: PREINCUBATION
Calls of active or inactive are those of the source. No rule for the calls is given here.
Labels: 1 (yes) for active, 0 (no) for inactive

1) CC(C)(C)OC(=O)N/N=C/c1c[n+]([O-])c2ccccc2[n+]1[O-]: 1 (yes)
2) CC(=O)[C@]1(O)Cc2c(O)c3c(c(O)c2[C@@H](O[C@H]2C[C@H](N)[C@H](OC(C[C@H](C)O)O[C@@H](C)C=O)[C@H](C)O2)C1)C(=O)c1c(O)cccc1C3=O (stereo not given in full): 1 (yes)
3) O=C1C(c2[nH]c3ccc(S(=O)(=O)O)cc3c2O)=Nc2ccc(S(=O)(=O)O)cc21: 0 (no)
4) COc1cc(OC)c(Cl)c(-n2c(-c3ccccc3)cc(=O)c(C)c2-c2ccc(F)cc2)c1: 0 (no)
5) C=CC(O)C=C: 0 (no)

###

Test system: CCRIS mutagenicity, Ames/micronucleus/aberration tests
Assay: CCRIS mutagenicity studies
Settings: Test System: AMES SALMONELLA TYPHIMURIUM; Strain/Indicator: TA98; Metabolic Activation: RAT, LIVER, S-9, AROCLOR 1254; Method: STANDARD PLATE
Text: The CCRIS database contains chemical records with carcinogenicity, mutagenicity, tumor promotion, and tumor inhibition test results. It was developed by the National Cancer Institute (NCI). Data are derived from studies cited in primary journals, current awareness tools, NCI reports, and other sources. Test results have been reviewed by experts in carcinogenesis and mutagenesis. CCRIS provides historical information from the years 1985 - 2011. It is no longer updated. […]
Activity calls are given as the source filed them. How the calls were made is not given here.
Labels: active, inactive

1. CC1(C)CC[C@]2(C(=O)O)CC[C@]3(C)C(=CC[C@@H]4[C@@]5(C)C[C@H](O)[C@H](O)[C@@](C)(C(=O)O)[C@@H]5CC[C@]43C)[C@@H]2C1: inactive
2. c1ccccc1: inactive
3. O=S(=O)(Nc1ccc(Cl)cc1Cl)c1cccc2cccnc12: inactive
4. c1ccc2c(c1)ccc1cc3c(ccc4ccncc43)cc12: active
5. O=C1C(c2[nH]c3ccccc3c2O)=Nc2ccccc21: active
6. CNC(=O)Oc1ccccc1OC(C)C: inactive
7. N#Cc1ccccc1: inactive
8. CCC(C)(C)OC: inactive
9. CCOC(=O)NNc1nncc2ccccc12: inactive
10. O=P([O-])([O-])OC(CCO)CCO.O=P([O-])([O-])OCC(O)CO.[Mn+2].[Mn+2]: inactive
11. O=[N+]([O-])c1cccc2cccc([N+](=O)[O-])c12: active
12. Nc1ccc(N=Nc2ccc3c(c2)C(=O)/C(=N/Nc2ccc(Nc4ccc(N/N=C5/C(=O)c6cc(N=Nc7ccc(N)cc7N)ccc6C=C5S(=O)(=O)O)cc4S(=O)(=O)O)cc2)C(S(=O)(=O)O)=C3)c(N)c1: active
13. O=C(Cl)c1ccc([N+](=O)[O-])cc1: inactive
14. Nc1ncc([N+](=O)[O-])s1: inactive
15. CC(C)=CCc1ccc(O)c2c(=O)c3c(O)c4c(cc3oc12)O[C@H]1OC=C[C@@]41O: active
16. O=c1[nH]c2ccccc2n1C1CCN(CCCC(c2ccc(F)cc2)c2ccc(F)cc2)CC1: inactive
17. COC(=O)Nc1nc2ccc(OS(=O)(=O)c3ccc(F)cc3)cc2[nH]1: inactive
18. CCCCC(CC)COC(=O)c1ccccc1C(=O)O (centres undefined): inactive
19. O=C([O-])[C@H](O)[C@@H](O)[C@H](O)[C@H](O)CO.O=C([O-])[C@H](O)[C@@H](O)[C@H](O)[C@H](O)CO.[Mn+2]: inactive
20. COC(=O)Nc1nc2ccc(C(=O)c3ccc(F)cc3)cc2[nH]1: inactive
21. COc1cc(N)c([N+](=O)[O-])cc1N: active
22. CCCCC/C=C\C/C=C\CCCCCCCC(=O)O: inactive
23. CNc1ccc(N(CCO)CCO)cc1[N+](=O)[O-]: inactive
24. CC(C)NNC(=O)c1ccncc1: inactive
25. O=CN(O)c1ccc([N+](=O)[O-])cc1: active
26. CCCC(=O)Nc1ccc(OCC(O)CNC(C)C)c(C(C)=O)c1 (centres undefined): inactive
27. CCOC(=O)c1[nH]c2ccccc2c1N=Cc1ccc([N+](=O)[O-])cc1: active
28. NCc1cccc(CN)c1: inactive
29. CCCCC=O: inactive
30. CC(=O)C(Cl)Cl: inactive
31. Nc1cccc([N+](=O)[O-])c1O: inactive
32. c1ccc2ncccc2c1: active
33. COc1cc(CCC(C)=O)ccc1O: inactive
34. Cc1nc2c(C)c(C)c3c(nc(N)n3C)c2nc1C: active
